B1: glmS ribozyme (parent)
chain: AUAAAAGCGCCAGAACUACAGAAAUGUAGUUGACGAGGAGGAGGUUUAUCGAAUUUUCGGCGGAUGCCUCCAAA

variants of: B1; experiment: self-cleavage kobs at 2500 uM GlcN6P; higher = faster cleavage; RNA array; conditions: with glucosamine-6-phosphate
This sample holds only a part of the variants without activity.
measuredMetric: self-cleavage kobs at 2500 uM GlcN6P (s⁻¹)
Give bare numbers, in s⁻¹.

Some variants with recorded self-cleavage kobs at 2500 uM GlcN6P:
In [3]: df
Out[3]:
                                        seq  valueunit     value
0  AUAAAAGCGCCAGAACUACAGAAAUGUAGUCGACGAGGAGGAGGUUUAUCGAAUUUUCGGCGGAAGCCUCCAAA        s⁻¹  0.000217
1  AUAAAAGCGCCAGAACUACAGAAAUGUAGUUGACGAGGAAGAGGUUUAUCGAAUUGUCGGCGGAUGCCUCCAAA        s⁻¹   0.00224

Dear colleague, could you please provide self-cleavage kobs at 2500 uM GlcN6P for the variants listed below?
1. AUAAAAGCGCCAGAACUACAGAAAUGUAGUUGACGAGGAGGAGGUUUAUCGGAUUUUCGGCGGAUUCCUCCAAA
2. AUAAAAGCGCCAGAACUACAGAAAUGUAGUAGACGAGGUGGAGGUUUAUCGAAUUUUCGGCGGAUGCCUCCAAA
3. AUAAAAGCGCCAGAGCUACAGAAAUGUAGUUGACGAGGAGGAGGUUGAUCGAAUUUACGGCGGAUGCCUCGAAA
4. AUAAAAGCGCCAGAACUACAGAAAUGUACUUGACGAGGAGGAGGUUUAUCGAAUUCUCGGCGGAUGCCUCCAAA

Reply:
1. 6.2e-05
2. 0.00802
3. 5.79e-05
4. 0.000116

Please go through the list and note self-cleavage kobs at 2500 uM GlcN6P for each variant.
1. AUAAAAGCGCCAGAACUACAGAAAUGUAGUUGACGAGGAGGAGGUUUAUCGAAUUUUCGGCGGGUGUCUCCAAA
2. AUAAAAGCGCCCGAACUACAGAAAUGUAGUUGACGAGGACGAGGUUUAUCGAAUUUUCGGCGGAUGCCUCCAAA
3. AUAAAAGCGCCAGAAAUACAGAAAUGUAGUUGACGAGGAGGAGGCUUAUCGAAUUUUCGGCGGAUGCCUCCAAA
4. AUAAAAGCGCAAGACCUACAGAAAUGUAGUUGACGAGGAGGAGGUUUAUCGAAUUUUCGGCGGAUGCCUCCAAA
5. AUAAAAGCGCCAGACCUACAGAAAUGUAGUAGACGAGGAGGAGGUUUAUCGAAUUUUCGGCGGAUGCCUCCAAA
6. AUAAAAGCGCCACAACUACAGAAAUGUAGUUGACGAGGAGGAGGUUUAUCGAGUUUUCGGCGGAUGCCUCCAAA
7. AUAAAAGCGCCAGAACUACAGAAAUGUAGUUGACGAGGAGGAGGUUUAGCGAAUUUUCGGCGGAUACCUCCAAA
8. AUAAAAGCGCCAGAACUACAGAAAUGUAGUUGACGAGGAGGAGGUUUAUGGAAUUAUCGGCGGAUGCCUCCAAA

Reply:
1: 0.00125; 2: 0.000666; 3: 8.36e-05; 4: 8.45e-05; 5: 0.00303; 6: 7.05e-05; 7: 0.00024; 8: 4.14e-05

Hi team, please reply with self-cleavage kobs at 2500 uM GlcN6P for each item in this list.
1. AUAAAAGCGCCAGAACUACAGAAAUGUACUUGACGAGGAGGAGGUUUAUCGAAUUUUCGGCGGAUGCUUCCAAA
2. AUAAAAGCGCCAGAACUACAGAAAUGUAGAUGACGAAGAGGAGGUUUAUCGAAUUUUCGGCGGAUGCCUCCAAA
3. AUAAAAGCGCCAGAACUACAGAAAUGUAGUUGACGAGGAGGAGGUUUAUCGGAUUUCCGGCGGAUGCCUCCAAA
4. AUAAAAGCGCCACAAGUACAGAAAUGUAGUUGACGAGGAGGAGGUUUAUCGAAUUUUCGGCGGAUGCCGCCAAA
5. AUAAAAGCGCCGGAACUACAGAAAUGUAGUUGACGAGGAGGAGGUUUAUCGAAUUUUCGGCGGAUGCCACCAAA
6. AUAAAAGCGCCAGAACUACAGAAAUGUAGUUGACGAAGAGGAGGUUUAUCGAAUUUUCGGCGGAUGCCCCCAAA
7. AUAAAAGCGCCAGAACUACAGAAAUGUAGUUUACGAGGAGGAGGUUUAGCGAAUUUUCGGCGGAUGCCUCCAAA
8. AUAAAAGCGCCAGAACUACAGAAAUGUAAUUGACGAGGAGGAGGUUUAUCGAAUUUUCGGCGCAUGCGUCCAAA

Reply:
0.000172
0.000141
0.000227
7.16e-05
0.000171
0.000167
4.54e-05
0.000233
